# setupConditions: in methanol, 308.15 K
assayEndpoint: solubility (mole fraction)
Reply briefly: the number, and no unit.

Reported solubility (mole fraction) of OC[C@@H](O)[C@@H](O[C@H]1O[C@H](CO)[C@@H](O)[C@H](O)[C@H]1O)[C@H](O)[C@@H](O)CO : 0.000393

* * *

# setupConditions: in isopropanol, 318.15 K
assayEndpoint: solubility (mole fraction)
Respond numerically, and do not add a unit to the figure.

For OC[C@@H](O)[C@@H](O[C@H]1O[C@H](CO)[C@@H](O)[C@H](O)[C@H]1O)[C@H](O)[C@@H](O)CO the compound record lists solubility (mole fraction) as 3.8e-05
